Biological target: TGFβ1 (R&D Systems)
Sequence (P01137 279-390): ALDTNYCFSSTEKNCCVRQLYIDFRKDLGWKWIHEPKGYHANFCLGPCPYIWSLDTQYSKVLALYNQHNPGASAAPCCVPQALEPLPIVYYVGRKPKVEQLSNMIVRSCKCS
Assay: cell-based or functional assay
Quick reference for TGFb1 IC50 (SMAD3 phosphorylation in CMVICs, AlphaLISA) among some binders
# include the unit after the value

Solved entries:
Felinized anti-TGFβ1,2,3 antibody VH3.2 - VL3 (antibody, V domains shown) VH: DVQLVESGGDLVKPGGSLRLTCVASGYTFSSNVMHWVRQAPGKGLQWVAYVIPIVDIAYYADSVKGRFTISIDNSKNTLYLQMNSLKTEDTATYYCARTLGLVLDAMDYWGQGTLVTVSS VL: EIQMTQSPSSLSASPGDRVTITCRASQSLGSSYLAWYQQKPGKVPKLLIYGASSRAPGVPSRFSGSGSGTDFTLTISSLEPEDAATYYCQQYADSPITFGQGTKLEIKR | 0.132 µg/mL
Felinized anti-TGFβ1,2,3 antibody VH3.2 - VL8 (antibody, V domains shown) VH: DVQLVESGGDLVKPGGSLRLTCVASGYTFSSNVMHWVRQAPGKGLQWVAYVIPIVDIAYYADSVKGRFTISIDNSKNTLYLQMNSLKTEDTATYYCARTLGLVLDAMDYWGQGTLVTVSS VL: DIVMTQSPGSLAGSPGQQVTMNCRASQSLGSSYLAWYQQKPGQHPELLIYGASSRAPGVPDRFSGSGSGTDFTLTISNLQAEDVANYYCQQYADSPITFGQGTKLEIKR | 0.072 µg/mL

Challenge: Reported TGFb1 IC50 (SMAD3 phosphorylation in CMVICs, AlphaLISA) for Felinized anti-TGFβ1,2,3 antibody VH3.2 - VL1 (antibody, V domains shown) VH: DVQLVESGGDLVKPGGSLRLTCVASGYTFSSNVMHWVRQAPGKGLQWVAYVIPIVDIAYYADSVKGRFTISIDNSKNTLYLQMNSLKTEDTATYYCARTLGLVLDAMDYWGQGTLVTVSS VL: ETVLTQSPGTLSLSPGERATLSCRASQSLGSSYLAWYQQKPGQAPRLLIYGASSRAPGIPDRFSGSGSGTDFTLTISRLEPEDFAVYYCQQYADSPITFGQGTKLEIKR : what is it?
Response given: 0.797 µg/mL
